test: gradient 5% acetonitrile 3 min, to 50% in 2 min, to 85% in 15 min, held 3 min, 100 µL/min; details: column: Zorbax Extend-C18 2.1 x 50 mm; eluents: water / acetonitrile, 0.1% formic acid
experimentalReadout: RP-LC retention time (s)

# compound, RP-LC retention time (s)
rows = [
    ("COC(=O)C1=CN(c2ccc(F)cc2C)c2cc(F)ccc2S1(=O)=O", 895),
    ("Fc1cc(F)cc(-c2nnc(Cc3nc(-c4ccccn4)no3)o2)c1", 814),
    ("CCNC(=O)N1CCCC1c1nc(-c2ccc(OC)cc2)no1 (stereo not given)", 761),
    ("CCN1CCN(CCCNC(=O)C(C)n2c3ccccc3c3cnn(C)c(=O)c32)CC1 (stereo not given)", 553),
    ("O=C(NCCCN1CCCCCC1)c1csc(-c2ccnc(N3CCOCC3)c2)n1", 576),
    ("O=C1NCCCn2cc(S(=O)(=O)Nc3cccc(Cl)c3)cc21", 680),
    ("O=C(NCC1(N2CCOCC2)CCOC1)Nc1cc(F)cc(F)c1 (stereo not given)", 604),
    ("COc1ccc(NC(=O)N2CCN(Cc3cn(C)c4ccccc34)CC2)cc1", 658),
]

(1) O=C(c1ccccc1C(F)(F)F)N1CCc2nc(-c3ccc(F)cc3)ncc2C1
(2) Cc1noc(C)c1CCC(=O)N1CCN(Cc2csc(-c3ccccc3)n2)CC1
Q: Which value of RP-LC retention time is greater, the one for 1 or the one for 2 ? Use the label to indicate which entry you chose.
Result: 1

###

experiment: gradient 5% acetonitrile 3 min, to 50% in 2 min, to 85% in 15 min, held 3 min, 100 µL/min; conditions: column: Zorbax Extend-C18 2.1 x 50 mm; eluents: water / acetonitrile, 0.1% formic acid
experimentalReadout: RP-LC retention time (s)

See these solved cases before continuing.
# smilesRecord, RP-LC retention time / s
data = [
    ("O=C(C1=CN(c2cc(F)cc(F)c2)c2cc(Cl)ccc2S1(=O)=O)N1CCCC1", 861),
    ("Cc1ccc(S(=O)(=O)N2C[C@H](F)C[C@@H]2C(=O)N2CCOCC2)cc1Cl", 750),
    ("Cc1nn(-c2ccccc2)c2nc(C3CC3)cc(C(=O)NCc3ccco3)c12", 1100),
]

(a) COc1ccccc1-c1nc(-c2cn(Cc3cccc(F)c3)nn2)no1
(b) CN(C)C(=O)c1n[nH]c2c1CN(C(=O)c1ccccc1Br)CC2
Q: Which value of RP-LC retention time is greater, the one for a or the one for b ? Use the label to indicate which entry you chose.
Result: a

###

assay: gradient 5% acetonitrile 3 min, to 50% in 2 min, to 85% in 15 min, held 3 min, 100 µL/min; details: column: Zorbax Extend-C18 2.1 x 50 mm; eluents: water / acetonitrile, 0.1% formic acid
experimentalReadout: RP-LC retention time (s)

See these solved cases before continuing.
# molecule, measurementUnit, RP-LC retention time
data = [
    ("Cn1nc(C(=O)N2CCCN(c3cc(-c4ccccc4)[nH]n3)CC2)c2ccccc21", "s", 700),
    ("O=C(NCc1c(-c2ccc(Cl)cc2)nc2n1CCS2)c1ccco1", "s", 668),
]

(A) Cc1nc2c(c(N(C)CCc3c(C)nn(C)c3C)n1)CCC2
(B) CC(C)C(=O)Nc1cnc(-c2ccc(F)cc2)nc1
Q: Please indicate which has the smaller reported RP-LC retention time: A , or B . Use the label to indicate which entry you chose.
Result: A
(A: 588 s, B: 861 s)

###

assay: gradient 5% acetonitrile 3 min, to 50% in 2 min, to 85% in 15 min, held 3 min, 100 µL/min; conditions: column: Zorbax Extend-C18 2.1 x 50 mm; eluents: water / acetonitrile, 0.1% formic acid
experimentalReadout: RP-LC retention time (s)

# compound, RP-LC retention time, s
rows = [
    ("Cc1cccc(NC(=O)C2(C)Oc3cccnc3N(C)C2=O)c1C (stereo not given)", 808),
    ("Cc1ccc2nc(C(=O)NCc3cccs3)cn2c1", 646),
    ("CC1=C(c2ccc(Cl)cc2)S(=O)(=O)N=C1N1CCCN(C(=O)c2ccccc2)CC1", 862),
    ("Cc1csc(-c2ccc(N3CCN(C(=O)Cc4cccc(F)c4)CC3)nc2)n1", 849),
    ("COc1ccc(-c2nc(C3CC(=O)N(c4ccc(F)c(Cl)c4)C3)no2)cc1OC (stereo not given)", 963),
    ("CCOc1ccc(-c2nc(-c3ccc4c(c3)oc(=O)n4C(C)C)no2)cc1", 1230),
    ("O=C(c1nnc(-c2ccc(S(=O)(=O)N3CCOCC3)cc2)o1)N1CCC2(CC1)OCCO2", 730),
    ("CCN(c1ccccc1F)S(=O)(=O)c1cc2n(c1)CCCN(C)C2=O", 780),
    ("CNC(=O)CCc1nc2ccccc2n(CC(=O)N2CCOc3ccc(C)cc32)c1=O", 728),
    ("CSc1ccc(CNC(=O)c2cn3cc(Cl)ccc3n2)cc1", 895),
]

###

experiment: gradient 5% acetonitrile 3 min, to 50% in 2 min, to 85% in 15 min, held 3 min, 100 µL/min; settings: column: Zorbax Extend-C18 2.1 x 50 mm; eluents: water / acetonitrile, 0.1% formic acid
experimentalReadout: RP-LC retention time (s)

# molecule, measurementUnit, RP-LC retention time
data = [
    ("CCc1cc(=O)n(CC(=O)Nc2ccc(F)cc2F)c(N2CCOCC2)n1", "s", 743),
]

(1) CCOC(=O)Cn1c(C2CC(=O)N(c3ccc(F)cc3)C2)nc2ccccc21 (stereo not given)
(2) O=C(Cc1csc(-c2ccccc2)n1)Nc1nc(-c2ccc(F)cc2)cs1
Q: Please indicate which has the smaller reported RP-LC retention time: 1 , or 2 . Use the label to indicate which entry you chose.
Result: 1

(I) CCOC(=O)c1c(S(=O)(=O)N2CCC(C(=O)Nc3ccc(C)cc3C)CC2)c(C)n(CC)c1C
(II) CCN(Cc1ccncc1)C1CN(C(=O)NCc2ccc(C)cc2)C1
Q: Please indicate which has the smaller reported RP-LC retention time: I , or II . Use the label to indicate which entry you chose.
Result: II

(1) CCOc1ccccc1C(=O)NC1(c2nc(-c3cccnc3)no2)CCCCC1
(2) O=C(CN1CCN(c2ccccn2)CC1)Nc1nccs1
Q: Which value of RP-LC retention time is greater, the one for 1 or the one for 2 ? Use the label to indicate which entry you chose.
Result: 1

###

assay: gradient 5% acetonitrile 3 min, to 50% in 2 min, to 85% in 15 min, held 3 min, 100 µL/min; settings: column: Zorbax Extend-C18 2.1 x 50 mm; eluents: water / acetonitrile, 0.1% formic acid
experimentalReadout: RP-LC retention time (s)

(1) CCNC(=O)c1c(-c2cccc(F)c2)noc1C
(2) Cc1cc(C)c(-c2csc(Nc3ccc(F)cn3)n2)cc1C
Q: Please indicate which has the smaller reported RP-LC retention time: 1 , or 2 . Use the label to indicate which entry you chose.
Result: 1

(a) CCOc1ccccc1N1CCN(S(=O)(=O)c2nn(CC)cc2C(=O)NCCC(C)C)CC1
(b) O=C(NCCCn1nc(-c2ccco2)ccc1=O)c1cc(Cl)ccc1Cl
Q: Please indicate which has the smaller reported RP-LC retention time: a , or b . Use the label to indicate which entry you chose.
Result: b
(b: 737 s, a: 1130 s)

(1) COC(=O)c1[nH]c2c(c1C)C(=O)CC(c1cc(OC)c(OC)c(OC)c1)C2 (stereo not given)
(2) Cc1ccc(Nc2c(-c3cccc(Br)c3)nc3ccc(Cl)cn23)cc1
Q: Please indicate which has the smaller reported RP-LC retention time: 1 , or 2 . Use the label to indicate which entry you chose.
Result: 1

(A) O=C(c1c(F)cccc1F)N1CCN=C1SCc1cccnc1
(B) Cc1nn2c(CNS(=O)(=O)c3ccc(C)c(Cl)c3)c(-c3ccccc3)nc2s1
Q: Which value of RP-LC retention time is greater, the one for A or the one for B ? Use the label to indicate which entry you chose.
Result: B

###

test: gradient 5% acetonitrile 3 min, to 50% in 2 min, to 85% in 15 min, held 3 min, 100 µL/min; details: column: Zorbax Extend-C18 2.1 x 50 mm; eluents: water / acetonitrile, 0.1% formic acid
experimentalReadout: RP-LC retention time (s)

# compound, measurementUnit, RP-LC retention time
rows = [
    ("O=C(Cc1cccs1)NCCS(=O)(=O)N1CCc2ccccc2C1", "s", 764),
    ("CCc1ccccc1NC(=O)N1CCCC(C)(C(=O)NCc2ccccc2C)C1 (stereo not given)", "s", 1020),
    ("O=C(c1ccccn1)N1CCN(c2cc(-c3ccccc3)ncn2)CC1", "s", 551),
    ("Cn1cc(-c2cc3n(n2)CCC(=O)N3CC(=O)Nc2cccc(F)c2)c2ccccc21", "s", 829),
    ("Cc1ccc(Cn2c(CN3CCC(C(=O)NC4CC4)CC3)cc3ccccc32)cc1", "s", 716),
]
